Consider the following molecules; for each one, report its pEC50.
STUDY TARGET: hT1R1/hT1R3 umami receptor expressed in an HEK293 cell line (Homo sapiens, UniProt Q7RTX0+Q7RTX1)
Construct: expressed in transfected cells; host or cells: HEK293 cell line derivative, hT1R1/hT1R3-HEK293-Gα15, clone I-17, mifepristone-induced
ASSAY EXPLANATION: In vitro hT1R1/hT1R3 umami taste receptor activation assay (FLIPR, dose response)
Format: cell-based
EXPERIMENTAL CONDITIONS: Table A, triazoles; read-out: Umami EC50
Reminder that pEC50 is minus the log10 of a molar concentration.

Form field pEC50, entry `Cn1c(Cc2ccccc2)nnc1SCc1ccc(Cl)cc1Cl` : 5.22

Please fill in: pEC50 reported for `CCn1c(SCc2cccnc2)nnc1-c1cc2ccccc2cc1O` = 5.72

// field: pEC50; key: `Cn1c(Cc2ccccc2)nnc1SCc1ccc(Cl)c(Cl)c1` ; value = 4.89

Consider `Cc1ccccc1-c1n[nH]c(SCc2ccccn2)n1` . Its measured pEC50 is 5.73

Notebook: `CCn1c(SCc2cccnc2)nnc1-c1cccc(C)c1` , pEC50 read as 4.88

* * *

STUDY TARGET: hT1R1/hT1R3 umami receptor expressed in an HEK293 cell line (Homo sapiens, UniProt Q7RTX0+Q7RTX1)
Construct: expressed in transfected cells; host or cells: HEK293 cell line derivative, hT1R1/hT1R3-HEK293-Gα15, clone I-17, mifepristone-induced
ASSAY EXPLANATION: In vitro hT1R1/hT1R3 umami taste receptor activation assay (FLIPR, dose response)
Assay type: cell-based
EXPERIMENTAL CONDITIONS: Table C, tetrazole; read-out: Umami EC50
MEASURED PARAMETER: pEC50
pEC50 here: minus log base 10 of the concentration, concentration in moles per litre.

Short answer for `CSc1ccc(-c2nnn(Cc3ccccn3)n2)cc1` : pEC50 was 5.23

* * *

STUDY TARGET: hT1R1/hT1R3 umami receptor expressed in an HEK293 cell line (Homo sapiens, UniProt Q7RTX0+Q7RTX1)
Construct: expressed in transfected cells; host or cells: HEK293 cell line derivative, hT1R1/hT1R3-HEK293-Gα15, clone I-17, mifepristone-induced
ASSAY EXPLANATION: In vitro hT1R1/hT1R3 umami taste receptor activation assay (FLIPR, dose response)
Assay type: cell-based
EXPERIMENTAL CONDITIONS: read-out: EC50 for activation of a hT1R1/hT1R3 umami receptor expressed in an HEK293 cell line
Assignment: determine reported EC50 for the given compounds.
# output: number + unit

Looking up Cc1ccc(-c2nc(SCc3ccccn3)n[nH]2)c(C)c1 [Example 3] , I see its EC50 listed as 90 nM

Entry under test: Cc1ccc(-c2ccc(SCc3ccccc3)nn2)c(C)c1 [Example 14] . Its EC50 was 2700 nM

Short answer for Cc1ccc(-c2ccc(OCc3ccccn3)nn2)c(C)c1 [Example 15] : EC50 was 6900 nM

Reported EC50 for CCc1ccc(-c2nc(SCc3ccccn3)n[nH]2)c(C)c1 [Example 10] was 20 nM

The compound Cc1ccc(-c2cn(CCc3ccccn3)nn2)cc1 [Example 12] showed EC50 equal to 16400 nM

Lab note: measured EC50 of CCc1ccc(-c2nc(SCc3ccccn3)n[nH]2)c(OC)c1 [Example 18] was 50 nM

The reported EC50 of the compound COc1cc(C)ccc1-c1nc(SCc2ccc(C)cn2)n[nH]1 [Example 2] was 490 nM

Noted for c1ccc(CSc2n[nH]c(-c3cc4ccccc4o3)n2)nc1 [Example 6] : its EC50 reads 2580 nM

The compound Cc1cc(-c2nc(SCc3ccccn3)n[nH]2)c(C)o1 [Example 7] showed EC50 equal to 2070 nM

Given item CCc1ccc(-c2nc(SCc3ccccn3)n[nH]2)cc1 [Example 4] , the value recorded as its EC50 is 140 nM

// EC50 value for Cc1ccc(-c2cn(Cc3ccccn3)nn2)cc1 [Example 11] : 4660 nM

Note to self: EC50 recorded for Cc1cc(-c2nc(SCCc3ccccn3)n[nH]2)oc1C [Example 8] was 1870 nM

The compound listed as Cc1cc(-c2nc(SCc3ccccn3)n[nH]2)oc1C [Example 5] shows EC50 equal to 580 nM

Entry under test: COc1cc(C)ccc1-c1nc(SCc2ccccn2)n[nH]1 [Example 1] . Its EC50 was 80 nM

Notebook: Cc1ccc(-c2ccc(SCc3cccnc3)nn2)c(C)c1 [Example 17] , EC50 read as 15200 nM

Value of measured EC50 for the entry Cc1ccc(-c2nnc(NCc3ccccn3)o2)c(C)c1 [Example 16] : 10300 nM

The recorded EC50 for entry Cc1ccc(-c2ccc(SCc3ccccn3)nn2)c(C)c1 [Example 13] equals 1500 nM

Form: compound = COc1ccc(Cc2nc(SCc3ccccn3)n[nH]2)c(OC)c1 [Example 9] ; EC50 = 1200 nM

* * *

Provide the recorded pEC50 for the entries that follow.
STUDY TARGET: hT1R1/hT1R3 umami receptor expressed in an HEK293 cell line (Homo sapiens, UniProt Q7RTX0+Q7RTX1)
Construct: expressed in transfected cells; host or cells: HEK293 cell line derivative, hT1R1/hT1R3-HEK293-Gα15, clone I-17, mifepristone-induced
Sequence (Q7RTX1 21-841): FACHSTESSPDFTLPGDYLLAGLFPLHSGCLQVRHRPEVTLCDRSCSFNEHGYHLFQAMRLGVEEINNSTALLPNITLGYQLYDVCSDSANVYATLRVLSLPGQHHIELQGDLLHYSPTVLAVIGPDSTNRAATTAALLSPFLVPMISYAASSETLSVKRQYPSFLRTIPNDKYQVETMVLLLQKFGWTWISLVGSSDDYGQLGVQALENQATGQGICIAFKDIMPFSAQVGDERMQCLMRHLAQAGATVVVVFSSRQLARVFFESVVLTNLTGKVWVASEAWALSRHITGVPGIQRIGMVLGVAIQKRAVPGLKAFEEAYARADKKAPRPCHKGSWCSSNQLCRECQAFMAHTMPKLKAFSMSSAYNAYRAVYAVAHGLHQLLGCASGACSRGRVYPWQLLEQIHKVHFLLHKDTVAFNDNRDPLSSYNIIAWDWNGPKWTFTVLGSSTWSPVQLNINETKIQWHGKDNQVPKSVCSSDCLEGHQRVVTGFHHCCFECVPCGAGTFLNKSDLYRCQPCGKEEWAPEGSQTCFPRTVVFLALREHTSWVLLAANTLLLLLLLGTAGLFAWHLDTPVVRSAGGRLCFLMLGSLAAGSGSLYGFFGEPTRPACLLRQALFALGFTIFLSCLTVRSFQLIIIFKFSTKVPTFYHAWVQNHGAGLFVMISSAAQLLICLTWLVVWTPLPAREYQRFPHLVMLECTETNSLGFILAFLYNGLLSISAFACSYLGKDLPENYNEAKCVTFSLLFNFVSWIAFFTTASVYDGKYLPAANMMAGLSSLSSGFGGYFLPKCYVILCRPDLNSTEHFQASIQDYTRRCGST
Sequence (Q7RTX0 21-852): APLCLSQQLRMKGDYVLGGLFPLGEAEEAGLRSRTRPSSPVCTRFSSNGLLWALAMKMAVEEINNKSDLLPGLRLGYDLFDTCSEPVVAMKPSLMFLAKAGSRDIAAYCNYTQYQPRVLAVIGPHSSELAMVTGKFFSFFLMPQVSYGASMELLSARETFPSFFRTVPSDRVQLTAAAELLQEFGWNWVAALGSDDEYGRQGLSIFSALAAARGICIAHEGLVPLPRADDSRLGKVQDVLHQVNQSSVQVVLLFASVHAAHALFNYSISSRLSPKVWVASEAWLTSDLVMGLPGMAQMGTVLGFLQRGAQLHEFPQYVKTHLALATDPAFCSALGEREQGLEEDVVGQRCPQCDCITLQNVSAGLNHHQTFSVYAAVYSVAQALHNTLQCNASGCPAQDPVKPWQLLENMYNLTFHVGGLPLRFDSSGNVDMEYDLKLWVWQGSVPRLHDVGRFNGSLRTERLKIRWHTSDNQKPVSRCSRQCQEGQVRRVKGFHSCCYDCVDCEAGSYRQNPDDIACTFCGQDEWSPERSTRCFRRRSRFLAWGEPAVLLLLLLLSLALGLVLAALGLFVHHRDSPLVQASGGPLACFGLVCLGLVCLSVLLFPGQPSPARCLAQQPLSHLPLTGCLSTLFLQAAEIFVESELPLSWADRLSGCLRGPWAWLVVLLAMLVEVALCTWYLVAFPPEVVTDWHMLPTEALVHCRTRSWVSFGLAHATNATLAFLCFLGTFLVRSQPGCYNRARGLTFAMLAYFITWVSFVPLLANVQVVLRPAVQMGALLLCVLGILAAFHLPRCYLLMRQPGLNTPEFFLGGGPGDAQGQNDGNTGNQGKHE
ASSAY EXPLANATION: In vitro hT1R1/hT1R3 umami taste receptor activation assay (FLIPR, dose response)
Assay type: cell-based
EXPERIMENTAL CONDITIONS: Table A, triazoles; read-out: Umami EC50
# pEC50 = -log10(concentration in molar units)

pEC50 measured on `Cc1ccc(-c2n[nH]c(SCc3ccccn3)n2)cc1` = 6.77

Note to self: pEC50 recorded for `c1ccc(CSc2nc(-c3ccc4c(c3)OCO4)n[nH]2)nc1` was 5.93

For this compound ( `COc1cccc(-c2n[nH]c(SCc3ccccn3)n2)c1OC` ), measured pEC50 is 6.74

The compound listed as `Clc1ccccc1-c1n[nH]c(SCc2ccccn2)n1` has a reported pEC50 of 5.61

GET /value?item= `COc1cc(OC)cc(-c2n[nH]c(SCc3ccccn3)n2)c1` &field=pEC50 returns 5.59

Input `COc1ccc(-c2n[nH]c(SCc3ccccn3)n2)cc1` . Output pEC50: 6.28

The recorded pEC50 for entry `COc1ccc(-c2n[nH]c(SCc3ccccn3)n2)c(C)c1` equals 6.62

Per the records, this compound ( `COc1ccc(-c2n[nH]c(SCc3ccccn3)n2)c(OC)c1` ) has pEC50 equal to 6.43

The reported value for `COc1cc(OC)cc(-c2n[nH]c(SCCc3ccccn3)n2)c1` in terms of pEC50 is 5.13

Item: `Clc1cccc(-c2n[nH]c(SCc3ccccn3)n2)c1` | pEC50: 5.60

// field: pEC50; key: `COc1ccc(-c2n[nH]c(SCc3ccc(C)cn3)n2)c(OC)c1` ; value = 5.97

Kindly note the recorded pEC50 for `Cc1ccoc1-c1n[nH]c(SCc2ccccn2)n1` , which is 5.03

Where these numbers come from: patent US8784782B2
